# SYSTEM_UNDER_TEST: UniProt:P30411
# Sequence (P30411 whole entry): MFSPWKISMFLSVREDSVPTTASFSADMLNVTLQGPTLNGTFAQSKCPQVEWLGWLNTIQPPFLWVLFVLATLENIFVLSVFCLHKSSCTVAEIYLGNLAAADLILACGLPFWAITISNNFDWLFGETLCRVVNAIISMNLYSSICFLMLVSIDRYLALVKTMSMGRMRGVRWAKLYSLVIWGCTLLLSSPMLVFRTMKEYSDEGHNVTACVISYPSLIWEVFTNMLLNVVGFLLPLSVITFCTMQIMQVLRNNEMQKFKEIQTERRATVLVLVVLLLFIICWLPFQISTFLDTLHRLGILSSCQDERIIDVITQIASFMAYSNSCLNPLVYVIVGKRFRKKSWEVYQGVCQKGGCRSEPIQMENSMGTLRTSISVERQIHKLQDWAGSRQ
# EXPERIMENTAL_DETAILS: human bradykinin B2 receptor calcium mobilization (hB2R-CaM) assay
# STATED_CONDITIONS: antagonism of bradykinin (EC80) induced calcium mobilization, B2 Bradykinin Receptor Stable Cell Line HTS041C, 25 min pre-incubation; read-out: IC50-value towards human bradykinin B2 receptor (hB2R)
pIC50: −log10 of the molar value.

ENTRY_SMILES	pIC50
Cc1cc(-n2cc(F)cn2)c2cccc(OCc3c(Cl)cc(F)cc3[C@H](C)N3CCNC3=O)c2n1	7.00 to 7.96
Cc1cc(-c2ncnn2C)c2cccc(OCc3c(Cl)cc(F)cc3[C@H](C)N3CCC[C@H](O)C3=O)c2n1	6.30 to 7.00
Cc1cc(-c2ncnn2C)c2cccc(OCc3c(Cl)cc(F)cc3[C@H](C)N3C[C@H](C)OCC3=O)c2n1	≥ 8.00
Cc1cc(-c2ncnn2C)c2cccc(OCc3c(Cl)cc(F)cc3[C@H](C)N3CCOCC3=O)c2n1	≥ 8.00
Cc1cc(-n2cc(F)cn2)c2cccc(OCc3c(Cl)cc(F)cc3[C@H](C)N3C[C@H](O)CC3=O)c2n1	7.00 to 7.96
Cc1cc(-n2cc(F)cn2)c2cccc(OCc3c(Cl)cc(F)cc3[C@H](C)N3CC(=O)N(C4CC4)C3=O)c2n1	7.00 to 7.96

The reported measurements were obtained from patent US12312330B2.
